Please provide measured Activity for the entries that follow.
species: Rattus norvegicus; experiment: Inhibition of rat recombinant geranylgeranyltransferase type I expressed in Escherichia coli assessed as residual enzyme activity for geranylgeranylation of K-Ras4B at 50 uM incubated for 30 mins in presence of [3H]GGPP by scintillation counting assay relative to control
Numbers only, in %.

Example cases with answers are listed next.
INSERT INTO assay_data (query_smiles, result_value) VALUES
  ('CCCS[C@@H]1C[C@@H](c2cccc(OC)c2)N(S(=O)(=O)c2ccc(C)cc2)C[C@H]1C(=O)O', 73.9),
  ('Cc1ccc(S(=O)(=O)N2[C@@H](c3ccc(C(C)(C)C)cc3)C(C(=O)O)=CC[C@H]2c2cccc(Cl)c2)cc1', 78.8);

Batch lookup, Activity per entry.
1. CCCCCS[C@@H]1C[C@@H](c2ccccc2F)N(S(=O)(=O)c2ccc(C)cc2)C[C@H]1C(=O)O
2. CCS[C@@H]1C[C@@H](c2ccc(OC)c(OC)c2)N(S(=O)(=O)c2ccc(C)cc2)C[C@H]1C(=O)O
3. CCOc1ccc([C@@H]2CC=C(C(=O)O)[C@H](c3cccc(Br)c3)N2S(=O)(=O)c2ccc(C)cc2)cc1
4. Cc1ccc(S(=O)(=O)N2C[C@@H](C(=O)O)[C@H](SCC(C)C)C[C@H]2c2ccc(Cl)cc2)cc1
5. Cc1ccccc1S(=O)(=O)N1[C@@H](c2ccc(Cl)cc2)C(C(=O)O)=C[C@H]1CC1CCCC1
6. Cc1ccc(S(=O)(=O)N2[C@@H](c3cccc(C)c3)C(C(=O)O)=CC[C@H]2c2ccc3c(c2)OCO3)cc1

Response line:
1. 61.4
2. 74.4
3. 78.4
4. 86.8
5. 23.7
6. 70.6

====

species on record: Rattus norvegicus; assay: Inhibition of rat recombinant geranylgeranyltransferase type I expressed in Escherichia coli assessed as residual enzyme activity for geranylgeranylation of K-Ras4B at 50 uM incubated for 30 mins in presence of [3H]GGPP by scintillation counting assay relative to control
Assign Activity to each entry below.
Numbers only, in %.

INSERT INTO assay_data (query_smiles, units_of_measure, result_value) VALUES
  ('CC(=O)C1=CC[C@@H](c2ccc(C)cc2)N(S(C)(=O)=O)C1', '%', 108);

Consider the following items and state reported Activity for each.
1. COc1ccc([C@@H]2C[C@@H](SCCC(C)C)[C@H](C(=O)O)CN2S(=O)(=O)c2ccccc2C)cc1
2. CCS[C@@H]1C[C@@H](c2ccc(C)cc2)N(S(C)(=O)=O)C[C@H]1C(=O)O
3. CCCCS[C@@H]1C[C@@H](c2ccccc2F)N(S(=O)(=O)c2ccc(C)cc2)C[C@H]1C(=O)O
4. Cc1ccc(S(=O)(=O)N2[C@@H](c3cccc(Br)c3)C(C(=O)O)=CC[C@H]2c2cccc(C)c2)cc1

Response line:
[65.9, 94.8, 86.3, 39.1]

====

species on record: Rattus norvegicus; experiment: Inhibition of rat recombinant geranylgeranyltransferase type I expressed in Escherichia coli assessed as residual enzyme activity for geranylgeranylation of K-Ras4B at 50 uM incubated for 30 mins in presence of [3H]GGPP by scintillation counting assay relative to control
I'd be grateful if you could share measured Activity for these entries.

Hello, I would appreciate it if you could give Activity for each entry below.
1. Cc1ccccc1S(=O)(=O)N1[C@@H](c2cccc(Br)c2)C(C(=O)O)=CC[C@H]1c1ccc(Cl)cc1
2. CCCCCS[C@@H]1C[C@@H](c2cc(OC)c(OC)c(OC)c2)N(S(=O)(=O)c2ccc(C)cc2)C[C@H]1C(=O)O
3. COc1ccc([C@@H]2C[C@@H](SCc3ccc(C(C)(C)C)cc3)[C@H](C(=O)O)CN2S(=O)(=O)c2ccccc2C)cc1

Response line:
10.6 to 19.2%
81.8%
87.2%

====

species on record: Rattus norvegicus; assay: Inhibition of rat recombinant geranylgeranyltransferase type I expressed in Escherichia coli assessed as residual enzyme activity for geranylgeranylation of K-Ras4B at 50 uM incubated for 30 mins in presence of [3H]GGPP by scintillation counting assay relative to control
Respond with 1 for Activity values of 70% and above, -1 for values below.

Reference set, count: 3
INSERT INTO assay_data (query_smiles, cat) VALUES
  ('Cc1ccc([C@@H]2CC=C(C(=O)O)[C@H](c3ccc(C(C)(C)C)cc3)N2S(=O)(=O)c2ccc(Cl)cc2)cc1', 1),
  ('CCc1ccc([C@@H]2CC=C(C(=O)O)[C@H](c3cccc(Br)c3)N2S(=O)(=O)c2ccc(C)cc2)cc1', 1),
  ('CCCS[C@@H]1C[C@@H](c2ccc(OC)cc2)N(S(=O)(=O)c2ccccc2)C[C@H]1C(=O)O', 1);

Prompt line: Hello, I need to know if `CCCCCCS[C@@H]1C[C@@H](c2cccc(Cl)c2)N(S(=O)(=O)c2ccc(C)cc2)C[C@H]1C(=O)O` has measured Activity not below 70%. Thanks!
Response line: 1

Prompt line: Continue with `CCCCS[C@@H]1C[C@@H](c2ccc(OC)cc2)N(S(=O)(=O)c2ccccc2)C[C@H]1C(=O)O`
Response line: 1

Prompt line: Same again, this time with `Cc1ccccc1S(=O)(=O)N1[C@@H](c2ccc(C(C)(C)C)cc2)C(C(=O)O)=CC[C@H]1c1ccc(Cl)cc1`
Response line: 1

Prompt line: Note, next up: `Cc1ccc(S(=O)(=O)N2[C@@H](c3ccc(Br)cc3)C(C(=O)O)=CC[C@H]2c2ccc3c(c2)OCO3)cc1`
Response line: 1

Prompt line: `Cc1ccccc1S(=O)(=O)N1[C@@H](c2ccccc2)C(C(=O)O)=CC[C@H]1c1ccc(Cl)cc1` , same question.
Response line: -1

Prompt line: // query: `COc1ccc([C@@H]2CC=C(C(=O)O)[C@H](c3cccc(Cl)c3)N2S(=O)(=O)c2ccc(Cl)cc2)cc1`
Response line: -1

Prompt line: Please give the result for `Cc1ccc(S(=O)(=O)N2C[C@@H](C(=O)O)[C@H](Sc3ccccc3)C[C@H]2c2cccc(Cl)c2)cc1` too.
Response line: 1

Prompt line: Try this compound next: `C=CCS[C@@H]1C[C@@H](c2ccc(Cl)cc2)N(S(=O)(=O)c2ccc(C)cc2)C[C@H]1C(=O)O`
Response line: -1

Prompt line: Same thing, different compound: `CCCCCCS[C@@H]1C[C@@H](c2ccc3c(c2)OCO3)N(S(=O)(=O)c2ccc(C)cc2)C[C@H]1C(=O)O`
Response line: -1

Prompt line: Can you handle `CCS[C@@H]1C[C@@H](c2ccc(C)cc2)N(S(=O)(=O)c2ccccc2)C[C@H]1C(=O)O` next?
Response line: 1

Prompt line: Please do the same for `COc1ccc([C@@H]2CC=C(C(=O)O)[C@H](c3cccc(C)c3)N2S(=O)(=O)c2ccc(C)cc2)cc1` as well.
Response line: -1

Prompt line: Another compound to check: `CCS[C@@H]1C[C@@H](c2ccc(OC)cc2)N(S(=O)(=O)c2ccc(C)cc2)C[C@H]1C(=O)O`
Response line: 1

Prompt line: Follow-up entry: `Cc1ccc([C@@H]2C[C@@H](Sc3ccc(Cl)cc3)[C@H](C(=O)O)CN2S(=O)(=O)c2ccc(Cl)cc2)cc1`
Response line: -1

Prompt line: Here is the next compound: `Cc1ccc([C@@H]2CC=C(C(=O)O)[C@H](c3ccc(Br)cc3)N2S(=O)(=O)c2ccccc2C)cc1`
Response line: 1

Prompt line: Then `Cc1ccc([C@@H]2CC=C(C(=O)O)[C@H](c3ccc(Br)cc3)N2S(=O)(=O)c2ccccc2)cc1` ?
Response line: 1

Prompt line: Please answer likewise for `Cc1ccc([C@@H]2CC=C(C(=O)O)[C@H](c3cccc(Br)c3)N2S(=O)(=O)c2ccccc2)cc1`
Response line: -1

Prompt line: Item: `COc1cccc([C@@H]2CC=C(C(=O)O)[C@H](c3cccc(C)c3)N2S(=O)(=O)c2ccc(C)cc2)c1`
Response line: 1

Prompt line: Same lookup for `Cc1ccc(S(=O)(=O)N2C[C@@H](C(=O)O)[C@H](SCc3ccccc3)C[C@H]2c2ccccc2)cc1` , please.
Response line: 1

Prompt line: Also `CCCC[C@@H]1[C@@H](Sc2ccc(C)cc2)[C@@H](C(=O)O)[C@H](c2cccc(F)c2)N1S(=O)(=O)c1ccc(C)cc1` , if possible.
Response line: -1

Prompt line: Again, but for `Cc1ccc([C@@H]2C[C@@H](SC3CCCC3)[C@H](C(=O)O)CN2S(=O)(=O)c2ccccc2)cc1`
Response line: 1

Prompt line: Try this compound too: `CCS[C@@H]1C[C@@H](c2cccc(Br)c2)N(S(=O)(=O)c2ccc(C)cc2)C[C@H]1C(=O)O`
Response line: 1

Prompt line: Again, but for `Cc1ccc(S(=O)(=O)N2[C@@H](c3ccc(Br)cc3)C(C(=O)O)=CC[C@H]2c2cccc(F)c2)cc1`
Response line: -1

Prompt line: What would you report for `CCc1ccc([C@@H]2CC=C(C(=O)O)[C@H](c3ccc(F)cc3)N2S(=O)(=O)c2ccc(C)cc2)cc1` ?
Response line: -1

Prompt line: // query: `COc1ccc([C@@H]2C[C@@H](SCc3ccccc3)[C@H](C(=O)O)CN2S(=O)(=O)c2ccc(C)cc2)cc1`
Response line: 1

Prompt line: Another compound to look at: `COc1ccc([C@@H]2C[C@@H](Sc3ccccc3)[C@H](C(=O)O)CN2S(=O)(=O)c2ccccc2C)cc1`
Response line: 1
